RECORDED METRIC: logP

[
  {
    "MOL SMILES": "Nc1c(Oc2ccccc2)cc(O)c2c1C(=O)c1ccccc1C2=O",
    "RECORDED METRIC": "logP",
    "NUMERIC READOUT": 4.68
  }
]

1 = CCN(CCO)c1ccc(/N=N/c2ccc([N+](=O)[O-])cc2[N+](=O)[O-])cc1
2 = O=C1c2ccccc2C(=O)c2c(O)c(O)cc(O)c21
3 = Cc1cc(Cl)cc2c1C(=O)/C(=C1\Sc3cc(Cl)cc(C)c3C1=O)S2
Hey, can you sort those compounds up there by logP, smallest first? // respond by listing labels in the order requested
2, 1, 3

----------
RECORDED METRIC: logP

I = Cc1cc(N(CCO)CCO)ccc1/N=N/c1c(Cl)cc([N+](=O)[O-])cc1[N+](=O)[O-]
II = O=C1c2ccc(O)c(O)c2C(=O)c2c(O)ccc(O)c21
I'd appreciate it if you could identify which of I and II has the greater logP. Your answer should be the label attached to the chosen record.
I
(I: 3.15, II: 2.01)

----------
RECORDED METRIC: logP

Please review the entries below; each comes with its answer.
[
  {
    "MOL SMILES": "Clc1ccc(/N=N/c2ccccc2)cc1",
    "logP": 4.56
  },
  {
    "MOL SMILES": "CC(=O)Nc1ccc(/N=N/c2cc(C)ccc2O)cc1",
    "logP": 2.85
  },
  {
    "MOL SMILES": "Nc1ccc(Nc2ccc([N+](=O)[O-])cc2[N+](=O)[O-])cc1",
    "logP": 3.32
  },
  {
    "MOL SMILES": "CN(CCO)c1ccc(/N=N/c2c(Cl)cc([N+](=O)[O-])cc2Cl)cc1",
    "logP": 4.34
  }
]

1 = OCCN(CCO)c1ccc(/N=N/c2ccccc2)cc1
2 = CCOc1cc(/N=N/c2c(Br)cc([N+](=O)[O-])cc2[N+](=O)[O-])c(NC(C)=O)cc1N(CCOC(C)=O)CCOC(C)=O
Hello, I am sorting some records. Could you say if 1 or 2 has the smaller logP value? Returns: label corresponding to the selected item.
1
(1: 2.31, 2: 3.56)

P = CCN(CCO)c1ccc(/N=N/c2ccc([N+](=O)[O-])cc2)cc1
Q = O=C1c2ccccc2C(=O)c2c1ccc(O)c2O
Lab note: check whether P or Q shows the higher recorded logP. Give the label of your selection.
P
(P: 3.37, Q: 2.34)

a = CNc1ccc(NC)c2c1C(=O)c1ccccc1C2=O
b = O=[N+]([O-])c1ccc(/N=N/c2ccc(N(CCO)CCO)cc2)c([N+](=O)[O-])c1
Between a and b , which one shows the smaller logP number? Please identify the chosen entry by its label.
b

P = O=[N+]([O-])c1ccc(/N=N/c2ccc(N(CCO)CCO)cc2Cl)cc1
Q = CNc1ccc(NCCO)c2c1C(=O)c1ccccc1C2=O
Hi there! Just curious which has the higher logP between P and Q . Record your answer as the label of the chosen record.
P
(P: 2.93, Q: 1.94)

----------
RECORDED METRIC: logP

[
  {
    "MOL SMILES": "Nc1ccc(/N=N/c2ccc([N+](=O)[O-])cc2)cc1",
    "logP": 2.37
  },
  {
    "MOL SMILES": "O=C1C(c2[nH]c3ccccc3c2O)=Nc2ccccc21",
    "logP": 2.63
  },
  {
    "MOL SMILES": "O=C1c2ccccc2C(=O)c2c(NCCO)cccc21",
    "logP": 2.11
  },
  {
    "MOL SMILES": "Nc1ccc(N=Nc2ccccc2)cc1",
    "logP": 2.62
  },
  {
    "MOL SMILES": "CN(C)c1ccc(/N=N/c2ccccc2)cc1",
    "logP": 4.05
  }
]
